system: Wnt5a (protein binding on small-molecule microarray); experiment: Wnt5a binders on small-molecule microarray, primary screen, biophysical, 635/667 nm fluorescence (AID 1142); settings: 635 nm fluorescence, higher = more signal;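 note: fluorescence read at 667 nm with signal to noise per printed feature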
MEASURED_QUANTITY: composite z-score
Keep it simple and answer with nothing but the number.

stdin: Report value: composite z-score, system: Wnt5a (protein binding on small-molecule microarray), compound: CCCCN1CC=CC23O[C@@H]4C=CCOC(=O)[C@@H]4[C@H]2C(=O)N(C(C)CO)[C@@H]3C1=O (some centres undefined)
stdout: -0.166

stdin: Report value: composite z-score, system: Wnt5a (protein binding on small-molecule microarray), compound: `CC(C)C(=C=CC[C@H](O)c1ccc(OCCO)cc1)C[C@H](O)c1cc(Cl)cc(Cl)c1O`
stdout: 0.0991

stdin: Report value: composite z-score, system: Wnt5a (protein binding on small-molecule microarray), compound: `CON(C)C(=O)C=C1C[C@@H](c2cccc(Cl)c2)O[C@@H](c2cccc(Cl)c2)O1`
stdout: -0.124

stdin: Report value: composite z-score, system: Wnt5a (protein binding on small-molecule microarray), compound: `C=C[C@H](COC(C)=O)NS(=O)(=O)c1ccc(Br)cc1`
stdout: -0.0966
